- Target System: Nape-pld (Mus musculus, UniProt Q8BH82)
- Sequence (Q8BH82 whole entry): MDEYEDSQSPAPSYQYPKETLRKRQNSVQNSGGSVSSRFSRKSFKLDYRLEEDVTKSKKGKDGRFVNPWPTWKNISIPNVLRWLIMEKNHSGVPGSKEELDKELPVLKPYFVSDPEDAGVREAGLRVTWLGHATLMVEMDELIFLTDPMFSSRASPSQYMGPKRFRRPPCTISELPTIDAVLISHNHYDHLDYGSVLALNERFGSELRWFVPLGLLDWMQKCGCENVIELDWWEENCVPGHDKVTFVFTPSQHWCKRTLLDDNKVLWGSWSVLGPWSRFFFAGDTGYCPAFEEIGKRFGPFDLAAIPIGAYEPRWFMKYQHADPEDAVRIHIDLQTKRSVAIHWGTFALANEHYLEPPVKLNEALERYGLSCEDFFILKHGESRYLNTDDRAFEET
- Protocol Summary: fluorogenic PED-A1 hydrolysis assay, activation
- Format: biochemical
- Details: read-out: EC50 μM^b (95% CI)
Attribute Measured: EC50 (µM)

- Molecule: "Cc1ccc(C)c2sc(NC(=O)C3CCN(S(=O)(=O)c4ccc(F)cc4)CC3)nc12 [compound 9, VU533]"
  Target System: "Nape-pld (Mus musculus, UniProt Q8BH82)"
  Attribute Measured: "EC50"
  Result Number: 0.3

###

- Target System: Nape-pld (Mus musculus, UniProt Q8BH82)
- Protocol Summary: fluorogenic PED-A1 hydrolysis assay, activation
- Type: biochemical
- Details: read-out: EC50 μM^b (95% CI)
Attribute Measured: EC50 (µM)

- Smiles Code: "Cc1cc(C)c2sc(NC(=O)C3CCN(S(=O)(=O)c4ccc(F)cc4)CC3)nc2c1"
  Target System: "Nape-pld (Mus musculus, UniProt Q8BH82)"
  Attribute Measured: "EC50"
  Result Number: 0.3
